# Tested on: OVCAR-4
# assay: NCI tumour cell line growth inhibition, 48 h
Activity calls are given as the source filed them. Rule as the data show it: active = GI50 up to about 1.1 µM and inactive = higher.
quantity: GI50

Answered cases to consult:
                                   compound  target_desc  quantity       measured_result
0         Oc1cc(-c2ccc(F)cc2)nc2ncc(Cl)cc12      OVCAR-4      GI50  > 77.3 µM (inactive)
1  C[C@H]1CC[C@@H]2[C@@H](C)[C@H]3[C@H](C[C@H]4[C@@H]5CC=C6C[C@@H](O)CC[C@]6(C)[C@H]5CC[C@]34C)N2C1      OVCAR-4      GI50    32.4 µM (inactive)
2  O=C1C2CC=CCC2C(=O)C12CCc1ccccc12 (stereo not given)      OVCAR-4      GI50   > 100 µM (inactive)
3  CC1=C(C(=O)Nc2ccccc2)C(c2ccccc2)C(C(=O)Nc2ccccc2)=C(C)N1      OVCAR-4      GI50    60.7 µM (inactive)

Supply reported GI50 belonging to this compound: CCN(CC)c1ccc(/C=C/C2=NN(c3cccc(S(=O)(=O)O)c3)C3(C2)C(Cl)C(=O)N3c2nc3ccccc3s2)cc1 (stereo not given)
4.89 µM (inactive)

Supply reported GI50 belonging to this compound: CCOC(=O)C(=O)Nc1ccc(Cl)cc1C
> 100 µM (inactive)

Supply reported GI50 belonging to this compound: O=S(=O)(c1cnccc1N1CCN(CCO)CC1)N1CCCC1
> 100 µM (inactive)

Supply reported GI50 belonging to this compound: O=C(Nc1ccccc1)N1CCN(C(=O)Nc2ccccc2)C1=S
55.7 µM (inactive)

Supply reported GI50 belonging to this compound: CC(O)c1cc2c(s1)C(=O)c1ccsc1C2=O (stereo not given)
0.212 µM (active)

Supply reported GI50 belonging to this compound: O=c1c2cc(Br)ccc2[nH]c(=S)n1-c1ccccc1
> 100 µM (inactive)

---

# Test system: EKVX
# assay: NCI tumour cell line growth inhibition, 48 h
Active and inactive are the calls of the source. Cut-off read from the data, not from the text of the source: active = GI50 up to about 1.1 µM and inactive = higher.
Each record here notes measured GI50.

                                   compound      measured_result
0  O=C1CN(c2cccc(Cl)c2)C(=O)CN1NCNN1CC(=O)N(c2cccc(Cl)c2)CC1=O  > 100 µM (inactive)
1  CC[C@H](C)N(CCN)C(=O)c1cc2ccccc2c(-c2ccccc2Cl)n1   11.5 µM (inactive)
2  CC(C)(C)/N=C\N(C=C(c1ccccc1)c1ccccc1)C1CCCCC1   93.1 µM (inactive)
3  O=c1c(O)c(-c2cc(O)c(O)cc2O)oc2cc(O)c(C3OC(CO)C(O)C(O)C3O)c(O)c12 (configuration not stated)  > 100 µM (inactive)
4  CC1=C(C#N)C2C(=C(N)Oc3ccccc32)C(N)=N1 (configuration not stated)   25.4 µM (inactive)

Supply reported GI50 belonging to this compound: CON(C)C(=O)C(C)N(Cc1ccccc1)Cc1ccccc1 (configuration not stated)
65.8 µM (inactive)

Supply reported GI50 belonging to this compound: N=C(N)NS(=O)(=O)c1ccc(NC(=O)c2cccc3c(Nc4ccc(S(=O)(=O)N=C(N)N)cc4)c4ccccc4nc23)cc1
71 µM (inactive)

---

# Test system: UACC-257
# assay: NCI tumour cell line growth inhibition, 48 h
The source made the active and inactive calls. No stated cut-off is given here; in the data, active = GI50 up to about 1.1 µM and inactive = higher. Where a SMILES comes first, the peptide text is derived from it. The star is where a group is joined. Boc = CC(C)(C)OC(=O)*; OBn = c1ccc(CO*)cc1
Respond only with the outcome that fits, drawn from Y = active, N = inactive

Use the examples below as a reference point.
compound	discrete-label
O=C(O)c1ccccc1/C=N\N=C1NCCCCN1	N
COC(=O)/C=C(\S/C(=C(/c1ccc(OC)cc1)n1cc(C(=O)OC)c(C(=O)OC)n1)c1ccc(OC)cc1)C(=O)OC	N
CC(C)(C)OC(=O)NC(Cc1ccccc1)C(=O)NC(Cc1ccccc1)C(=O)NCC(=O)OCc1ccccc1 (stereo not drawn) (Boc-Phe-Phe-Gly-OBn; configuration not given here)	N
O=C1C(CN2CCCC2)CCCC1CN1CCCC1 (stereo not given)	N
C[C@H]1CC[C@@H]2[C@@H](C)[C@H]3[C@H](C[C@H]4[C@@H]5CC=C6C[C@@H](O)CC[C@]6(C)[C@H]5CC[C@]34C)N2C1	N

Please indicate how the test categorized Nc1n[nH]c(Nc2ccc(Cl)cc2)c1P(=O)(c1ccccc1)c1ccccc1 .
N

Please indicate how the test categorized CN(C)c1ccc(/C=C/c2cc(-c3ccccc3)[n+](C)n2-c2ccccc2)cc1 .
Y

Please indicate how the test categorized O=C1CSC2(CC(/C=C/c3cccc(Br)c3)=NN2c2cccc(S(=O)(=O)O)c2)N1c1nc2ccccc2s1 (stereo not given) .
N

Please indicate how the test categorized CCN(CC)CCOC(=O)CCN1CC2CCC(CC2)C1 .
N

Please indicate how the test categorized CC(=O)Nc1ccc(Sc2nnc(NC(C)=O)s2)cc1 .
N

Please indicate how the test categorized CC1(C)C/C=C\CCC(O)C(O)CCC(C)(C)C1=O (stereo not given) .
N

Please indicate how the test categorized CCc1ccc(/C=C/C(=O)C2CN(CC)CCC2(O)/C=C/c2ccc(CC)cc2)cc1 (stereo not given) .
N

Please indicate how the test categorized O=C1CSC(c2cc3cc(Br)ccc3nc2Cl)N1c1ccc(F)c(Cl)c1 (stereo not given) .
N

Please indicate how the test categorized CCC1c2[nH]c3ccccc3c2C[C@H]2C(=O)NC(C)C(=O)N12 (stereo not given in full) .
N

---

# System: Malme-3M
# assay: NCI tumour cell line growth inhibition, 48 h
Active and inactive are the calls of the source. Cut-off read from the data, not from the text of the source: active = GI50 up to about 1.1 µM and inactive = higher.
Respond only with the outcome that fits, drawn from TRUE (active), FALSE (inactive)

Use the examples below as a reference point.
In [3]: df
Out[3]:
                                   molecule  target_desc  discrete_label
0  O=C(Cc1nc2ccccc2s1)NC12CC3CC(CC(C3)C1)C2     Malme-3M           FALSE
1     O=S(=O)(c1cnccc1N1CCN(CCO)CC1)N1CCCC1     Malme-3M           FALSE
2  Cc1c(-c2ccccc2)c(C#N)c2nnn(-c3cccc(Cl)c3)c(=O)n12     Malme-3M           FALSE
3  C=C(C)CC(C)(c1cc2ccccc2n1C)N1CCOCC1 (centres undefined)     Malme-3M           FALSE
4  COc1ccc(OC)c(-c2nc3n(c2/C=C2/C(=O)Nc4ccccc42)CCS3)c1     Malme-3M           FALSE
5                            O=C1OCC/C1=N/O     Malme-3M           FALSE

Read the next record carefully.
Please indicate how the test categorized CCCC[C@H]1C(=O)O[C@H](C)[C@H](NC(=O)c2cccc(NC=O)c2O)C(=O)O[C@@H](C)[C@@H]1OC(=O)CC(C)C [ANTIMYCIN A3] .
FALSE

---

# System: SF-295
# assay: NCI tumour cell line growth inhibition, 48 h
Calls of active or inactive are those of the source. No stated cut-off is given here; in the data, active = GI50 up to about 1.1 µM and inactive = higher.
quantity: GI50

>>> df
                                   compound      measured_result
0  Cc1ccccc1NC(=O)C(=O)CC(=O)C1CCOC1=O (stereo unspecified)  > 100 µM (inactive)

Give the observed GI50 of O=C(O)/C=C/C(=O)N1C/C(=C\c2ccccc2)C(=O)/C(=C/c2ccccc2)C1 for SF-295.
5.01 µM (inactive)

Give the observed GI50 of Cc1ccc(NC(=O)C2C(=O)N(c3ccc(C)cc3)C(=O)/C2=N\NC(N)=S)cc1 (stereo unspecified) for SF-295.
> 100 µM (inactive)

Give the observed GI50 of Cn1c2ccc3cc2c(=S)c2cc(ccc21)OCCOCCOCCOCCOCCO3 for SF-295.
> 10 µM (inactive)

Give the observed GI50 of OC(c1cc(C23CC4CC(CC(C4)C2)C3)nc2c(Cl)cc(Cl)cc12)C1CCCCN1 (stereo unspecified) for SF-295.
1.67 µM (inactive)

Give the observed GI50 of O=C1C=CC2(CCCCCCC2=O)CC1 (stereo unspecified) for SF-295.
> 100 µM (inactive)

---

# System: SK-MEL-2
# assay: NCI tumour cell line growth inhibition, 48 h
Activity calls are given as the source filed them. No stated cut-off is given here; in the data, active = GI50 up to about 1.1 µM and inactive = higher.
Respond only with the outcome that fits, drawn from active, inactive

Use the examples below as a reference point.
In [3]: df
Out[3]:
                                   compound  target_desc  discrete_label
0  CN(C)CCCNc1ccc2c(=O)n(CCN(C)C)c(=O)n3c4ccccc4c(=O)c1c23     SK-MEL-2          active
1          Cn1c(=S)[nH]c(N)c(Cc2ccccc2)c1=O     SK-MEL-2        inactive
2  O=c1/c(=C/c2ccccc2[N+](=O)[O-])sc2nnc(-c3cccnc3)n12     SK-MEL-2        inactive
3      Cc1nc(Cl)c2sc(=S)n(-c3ccc(F)cc3)c2n1     SK-MEL-2        inactive
4  COc1cc2c(cc1OCCCN1C(=O)c3cccc4cccc(c34)C1=O)N=C[C@@H]1CCCN1C2=O     SK-MEL-2        inactive
5  CCC1c2[nH]c3ccccc3c2C[C@H]2C(=O)NC(C)C(=O)N12 (some centres undefined)     SK-MEL-2        inactive

Please indicate how the test categorized N=C(N)NS(=O)(=O)c1ccc(Nc2c3ccccc3nc3c(C(=O)NC(CO)(CO)CO)cccc23)cc1 .
inactive

Please indicate how the test categorized CCOC(=O)c1nc2ccccc2nc1Oc1ccc(C(=O)OC)cc1 .
inactive

Please indicate how the test categorized COc1ccc2c(c1)[n+]([O-])c(C(=O)C/C(=N/NC(=O)c1ccccc1O)C(=O)Nc1ccc(Cl)c(C(F)(F)F)c1)c(C)[n+]2[O-] .
inactive
